Assign Delta blood pressure to each entry below.
species: Canis familiaris; experiment: Cardioselectivity was estimated by normalizing changes in diastolic blood pressure to the 50% levels of contractile force in mongrel dogs; type: functional, Canis lupus familiaris, Artery
Unit mmHg implied. Number only.

What the record says about CC(Cc1ccc(O)c(O)c1)NC1CCc2cc(O)c(O)cc2C1 (centres undefined) : Delta blood pressure is -39

What the record says about CC(Cc1ccc(O)c(O)c1)NCCc1ccc(O)c(O)c1 (centres undefined) : Delta blood pressure is -19

What the record says about Oc1cc2c(cc1O)CC(NC1CCc3cc(O)c(O)cc3C1)CC2 (centres undefined) : Delta blood pressure is -78

What the record says about Oc1cc2c(cc1O)CC(NC1CCc3c(ccc(O)c3O)C1)CC2 (centres undefined) : Delta blood pressure is -61
